- system: LRRK2 G2019S mutant kinase (Homo sapiens, UniProt Q5S007, G2019S)
- Construct: GST
- Sequence (Q5S007 whole entry G2019S): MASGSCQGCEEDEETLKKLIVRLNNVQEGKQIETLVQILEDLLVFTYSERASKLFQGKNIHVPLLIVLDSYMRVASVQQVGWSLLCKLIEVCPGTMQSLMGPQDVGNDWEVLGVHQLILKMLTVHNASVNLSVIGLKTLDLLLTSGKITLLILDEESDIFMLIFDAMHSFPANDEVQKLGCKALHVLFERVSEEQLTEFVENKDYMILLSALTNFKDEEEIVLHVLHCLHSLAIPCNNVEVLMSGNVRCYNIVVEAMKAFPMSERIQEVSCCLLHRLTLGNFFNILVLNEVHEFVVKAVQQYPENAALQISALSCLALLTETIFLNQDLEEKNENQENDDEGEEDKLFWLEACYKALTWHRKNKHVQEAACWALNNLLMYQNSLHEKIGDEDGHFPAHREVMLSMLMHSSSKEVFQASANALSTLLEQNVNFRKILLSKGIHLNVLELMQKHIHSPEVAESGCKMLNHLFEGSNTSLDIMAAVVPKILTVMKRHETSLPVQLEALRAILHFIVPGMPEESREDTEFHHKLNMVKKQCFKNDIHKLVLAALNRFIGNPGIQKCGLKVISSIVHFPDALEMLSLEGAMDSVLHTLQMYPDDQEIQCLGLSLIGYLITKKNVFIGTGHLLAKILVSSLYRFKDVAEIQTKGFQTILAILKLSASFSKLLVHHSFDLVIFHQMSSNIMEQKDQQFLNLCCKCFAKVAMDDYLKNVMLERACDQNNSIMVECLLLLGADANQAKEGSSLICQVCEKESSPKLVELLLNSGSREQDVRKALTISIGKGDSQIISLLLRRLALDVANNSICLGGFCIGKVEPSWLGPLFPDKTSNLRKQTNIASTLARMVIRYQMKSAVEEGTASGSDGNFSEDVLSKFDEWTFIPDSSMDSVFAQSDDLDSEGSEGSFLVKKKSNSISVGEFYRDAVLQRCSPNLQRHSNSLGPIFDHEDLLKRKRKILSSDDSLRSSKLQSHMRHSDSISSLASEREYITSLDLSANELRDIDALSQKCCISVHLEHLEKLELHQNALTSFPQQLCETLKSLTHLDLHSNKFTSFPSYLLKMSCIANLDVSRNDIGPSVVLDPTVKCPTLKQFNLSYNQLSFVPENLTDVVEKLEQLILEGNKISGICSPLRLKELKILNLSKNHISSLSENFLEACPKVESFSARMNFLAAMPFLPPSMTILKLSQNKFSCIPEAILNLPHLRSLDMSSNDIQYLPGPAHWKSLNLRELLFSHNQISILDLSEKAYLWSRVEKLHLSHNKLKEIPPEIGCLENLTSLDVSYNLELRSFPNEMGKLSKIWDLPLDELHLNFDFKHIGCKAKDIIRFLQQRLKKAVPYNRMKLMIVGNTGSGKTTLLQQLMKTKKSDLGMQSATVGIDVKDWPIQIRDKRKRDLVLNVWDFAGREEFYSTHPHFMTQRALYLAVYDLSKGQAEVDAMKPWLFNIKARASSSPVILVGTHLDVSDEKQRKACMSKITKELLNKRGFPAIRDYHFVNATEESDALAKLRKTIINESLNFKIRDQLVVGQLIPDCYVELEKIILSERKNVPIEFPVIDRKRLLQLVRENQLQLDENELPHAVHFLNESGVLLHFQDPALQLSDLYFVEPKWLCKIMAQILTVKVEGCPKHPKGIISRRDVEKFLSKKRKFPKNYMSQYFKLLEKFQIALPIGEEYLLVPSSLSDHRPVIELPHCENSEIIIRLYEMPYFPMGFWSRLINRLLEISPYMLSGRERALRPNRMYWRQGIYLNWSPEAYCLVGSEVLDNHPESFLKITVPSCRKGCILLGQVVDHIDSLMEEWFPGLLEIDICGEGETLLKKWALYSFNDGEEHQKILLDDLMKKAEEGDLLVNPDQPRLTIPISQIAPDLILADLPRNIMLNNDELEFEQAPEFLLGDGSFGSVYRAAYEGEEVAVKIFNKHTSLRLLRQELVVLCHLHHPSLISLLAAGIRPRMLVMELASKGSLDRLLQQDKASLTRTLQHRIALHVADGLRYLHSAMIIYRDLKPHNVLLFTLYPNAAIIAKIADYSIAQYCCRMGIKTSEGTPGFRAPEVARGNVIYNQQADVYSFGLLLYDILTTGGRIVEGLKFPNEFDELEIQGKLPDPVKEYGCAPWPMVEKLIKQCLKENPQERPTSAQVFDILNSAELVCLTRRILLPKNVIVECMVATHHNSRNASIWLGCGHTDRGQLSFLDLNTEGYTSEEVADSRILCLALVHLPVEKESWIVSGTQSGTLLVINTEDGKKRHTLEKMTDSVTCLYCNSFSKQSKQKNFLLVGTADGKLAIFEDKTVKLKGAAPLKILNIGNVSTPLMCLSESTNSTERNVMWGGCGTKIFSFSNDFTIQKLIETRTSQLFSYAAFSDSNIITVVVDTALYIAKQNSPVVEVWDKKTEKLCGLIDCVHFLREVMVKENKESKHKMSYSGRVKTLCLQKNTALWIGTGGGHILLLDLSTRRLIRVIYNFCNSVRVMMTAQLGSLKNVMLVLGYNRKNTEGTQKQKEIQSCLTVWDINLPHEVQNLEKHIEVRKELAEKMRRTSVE
- experiment.description: LRRK2 G2019S LanthaScreen TR-FRET kinase assay
- experimental.setup: LRRK2 G2019S GST-tagged protein, 75 nM Fluorescein-ERM (LRRKtide), 100 μM ATP, 1 hour at room temperature; read-out: IC50 (potency)
readout.type: IC50 (µM)

See these solved cases before continuing.
{"columns": ["compound", "system", "IC50 / µM"],
 "data": [
  ["CSc1sc(-c2cc[nH]n2)c2c1C(=O)NC(C(F)(F)F)C2 (stereo not drawn)", "LRRK2 G2019S mutant kinase (Homo sapiens, UniProt Q5S007, G2019S)", 0.19],
  ["CSc1sc(-c2cc[nH]n2)c2c1C(=O)NC1(CC1)C2", "LRRK2 G2019S mutant kinase (Homo sapiens, UniProt Q5S007, G2019S)", 0.35],
  ["CSc1sc(-c2cc[nH]n2)c2c1C(=O)NC(C1CCC1)C2 (stereo not drawn)", "LRRK2 G2019S mutant kinase (Homo sapiens, UniProt Q5S007, G2019S)", 0.19]
]}

(A) CSc1sc(-c2cc[nH]n2)c2c1C(=O)N(C(=O)OC(C)(C)C)C(C)C2 (stereo not drawn)
(B) CSc1sc(-c2cc[nH]n2)c2c1C(=O)N(CCN1CCOCC1)CC2
(C) CSc1sc(-c2cc[nH]n2)c2c1C(=O)N(c1ccccc1F)CC2
Task item: Rank order required: IC50, descending. Record the ranking as a list of labels in the requested order.
Reply: B, A, C
(B: 9.2 µM, A: 4.8 µM, C: 3.1 µM)

(a) C[C@H]1Cc2c(-c3cc[nH]n3)sc(NC3CCCC3)c2C(=O)N1
(b) COc1cccc(N2CCc3c(-c4cc[nH]n4)sc(SC)c3C2=O)c1
Task item: For a and b , which recorded IC50 is lower? Identify your selection by its label.
Reply: a
(a: 0.32 µM, b: 4.7 µM)
